biological target: δ-opiate receptors (Rattus norvegicus); construct: Adult Sprague-Dawly rats (150-200g) were killed by decapitation; The brain was rapidly removed and homogenized; from tissue; host or cells: rat brain membranes (Sprague-Dawley); experiment: [3H]DADLE receptor binding to rat brain homogenates; conditions: 1 nM [3H]DADLE
Sequence (P33533 whole entry): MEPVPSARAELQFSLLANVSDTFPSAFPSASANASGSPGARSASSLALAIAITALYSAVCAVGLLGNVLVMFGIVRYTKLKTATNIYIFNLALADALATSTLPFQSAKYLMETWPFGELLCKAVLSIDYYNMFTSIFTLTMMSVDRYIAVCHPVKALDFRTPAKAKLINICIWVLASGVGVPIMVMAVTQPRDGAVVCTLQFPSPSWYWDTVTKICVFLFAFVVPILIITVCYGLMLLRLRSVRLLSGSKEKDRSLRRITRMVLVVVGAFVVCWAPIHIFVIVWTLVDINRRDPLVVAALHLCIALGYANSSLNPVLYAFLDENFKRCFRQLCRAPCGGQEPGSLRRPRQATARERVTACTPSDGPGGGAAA
Positions of bridges follow the written chain, without caps; N, C: chain ends. Non-standard residues stand in square brackets, D forms with d. Residues, ends and D or L forms follow the SMILES beside them. dPhg = N[C@@H](C(=O)O)c1ccccc1; Pen = CC(C)(S)[C@H](N)C(=O)O
Mark yes for IC50 under 3 µM, no if at or over.

Ask: Just wondering, is IC50 of C[C@@H](O)[C@H](NC(=O)[C@H]1NC(=O)[C@H]([C@@H](C)O)NC(=O)[C@H](CCCCN)NC(=O)[C@@H](Cc2c[nH]c3ccccc23)NC(=O)[C@H](Cc2ccccc2)NC(=O)[C@@H](NC(=O)[C@H](N)Cc2ccccc2)CSSC1(C)C)C(N)=O [drawing 25] below 3 µM?
Reply: yes

Ask: Param item: C[C@@H](O)[C@H](NC(=O)[C@H]1NC(=O)[C@H]([C@@H](C)O)NC(=O)[C@H](CCCCN)NC(=O)[C@@H](Cc2c[nH]c3ccccc23)NC(=O)[C@H](Cc2ccc(O)cc2)NC(=O)[C@@H](NC(=O)[C@H](N)Cc2ccccc2)CSSC1(C)C)C(=O)O [drawing 26]
Reply: no

Ask: Param item: C[C@@H](O)[C@H](NC(=O)[C@H]1NC(=O)[C@H]([C@@H](C)O)NC(=O)[C@H](CCCCN)NC(=O)[C@@H](Cc2c[nH]c3ccccc23)NC(=O)[C@H](Cc2ccc(O)cc2)NC(=O)[C@@H](NC(=O)[C@H](N)Cc2ccccc2)CSSC1(C)C)C(N)=O [drawing 24]
Reply: yes

Ask: Param item: CC(=O)N[C@@H](Cc1ccccc1)C(=O)N[C@H](Cc1c[nH]c2ccccc12)C(=O)N[C@@H](CCCCN)C(=O)N[C@H](C(=O)O)[C@@H](C)O [AcPhe --D-TrpLysThr, reference compound] (Ac-F[dW]KT-OH)
Reply: no

Ask: Param item: C[C@@H](O)[C@H](NC(=O)[C@@H]1CSSC(C)(C)[C@H](NC(=O)[C@H](N)c2ccccc2)C(=O)N[C@@H](Cc2ccccc2)C(=O)N[C@H](Cc2c[nH]c3ccccc23)C(=O)N[C@@H](CCCCN)C(=O)N[C@@H]([C@@H](C)O)C(=O)N1)C(=O)O [drawing 28] (H-[dPhg][Pen]F[dW]KTCT-OH; disulfide 2-7)
Reply: no

Ask: Param item: `C[C@@H](O)[C@H](NC(=O)[C@@H]1CSSC(C)(C)[C@H](NC(=O)[C@H](N)Cc2ccccc2)C(=O)N[C@@H](Cc2ccc(O)cc2)C(=O)N[C@H](Cc2c[nH]c3ccccc23)C(=O)N[C@@H](CCCCN)C(=O)N[C@@H]([C@@H](C)O)C(=O)N1)C(=O)O`
Reply: yes

Ask: Param item: C[C@@H](O)[C@H](NC(=O)[C@@H]1CSSC[C@H](NC(=O)[C@H](N)Cc2ccccc2)C(=O)N[C@@H](Cc2ccccc2)C(=O)N[C@H](Cc2c[nH]c3ccccc23)C(=O)N[C@@H](CCCCN)C(=O)N[C@@H]([C@@H](C)O)C(=O)N1)C(=O)O [drawing 31]
Reply: no

# credit: patent US4684620A
